Test: anti-His antibody binders, primary screen, artefact control for SMM control protein annotation, biochemical, small-molecule microarray, 635 nm fluorescence (AID 1128);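 note: score merges feature fluorescence with signal-to-noise for each printed compound spot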
Conditions: anti-His Alexa647 antibody binding, higher = more signal
Please note: T applies when composite z-score is 0.3 or greater, and F applies otherwise.

Please indicate if the recorded composite z-score for `CO[C@@H]1COC(=O)CC=C[C@@H](C)[C@H](OC)COC(=O)[C@@H](C)COC(=O)CC=C[C@H]1C` meets or exceeds 0.3.
F

Check the entry COC(=O)CC=C[C@@H](C)[C@@H](C=NOC(C)CN1CCCc2nc(C)c(C)cc21)OC (stereo not given in full) : does composite z-score equal or exceed 0.3?
T

Is the recorded value of composite z-score equal to or greater than 0.3 for this molecule? `CCCNC(=O)OC[C@H]1O[C@H](CCON=Cc2ccc(C(=O)N3[C@H](c4ccc(C)cc4)[C@@H](C)CC[C@H]3C(=O)OC)cc2)C=C[C@@H]1Oc1ccc(OC)cc1`
T

Is the recorded value of composite z-score equal to or greater than 0.3 for this molecule? `CCCCC#C[C@@H]1C=C[C@H](OC(C)=O)[C@@H](COC(C)=O)O1`
F

hey, is composite z-score for this one >= 0.3? `CC(C)(C)N1C(=O)[C@H]2[C@H]3[C@H](O)C=CC(=O)[C@@H]3CC[C@H]2C1=O`
F

Decide: is the reported value of composite z-score for `C[C@@H](c1ccccc1)N1C(=O)[C@H]2[C@H]3[C@H](O)[C@H](O)CC(=NOCc4ccccc4)[C@H]3CC[C@H]2C1=O` equal to or greater than 0.3?
T

Form field: composite z-score at least 0.3? Entry: `COC(=O)NCC=Cc1nc(CCCO)co1`
T

Could you please find out whether `CCN1C(=O)[C@@H]2[C@H]3C(=CC[C@@H]2C1=O)C1(OCCCO1)[C@H]1O[C@H]1[C@H]3O` has composite z-score that meets 0.3 or exceeds it?
T

Decide: is the reported value of composite z-score for `COC(=O)[C@@H]1CC[C@H](C)[C@@H](c2ccc(C)cc2)N1C(=O)c1ccc(C=NOCC[C@@H]2C=C[C@H](OC(C)=O)[C@@H](COC(C)=O)O2)cc1` equal to or greater than 0.3?
T

Would you say `CC(C)CCN1CCc2nc(COc3ccccc3)c3c(c2C1)CO[C@@H](C)C3` shows composite z-score at minimum 0.3?
T

Hi team, for CCOC(=O)[C@H](CC(C)C)NC(=O)CCC1CC(OC(=O)NCCc2ccc(F)cc2)CC2(CCCC(COC(=O)NCCc3ccccc3OC)O2)O1 (stereo not given in full) , is the recorded composite z-score at or above 0.3?
T

# check: composite z-score of `C[C@@H](ON=C1[C@H]2CCn3c(=O)n(-c4ccccc4)c(=O)n3[C@H]2[C@H](O)[C@@H]2O[C@H]12)c1cn([C@@H]2COC[C@H]2O)nn1` is greater than or equal to 0.3
F

Has `COc1ccc(COC(=O)NN=C2C[C@@H](O)[C@@H](O)[C@@H]3[C@@H]4C(=O)N(C5CCCCC5)C(=O)[C@@H]4CC[C@H]23)cc1` a recorded composite z-score greater than or equal to 0.3?
F

Given `CCCNC(=O)OC[C@H]1O[C@H](CCON=C(C)CCN2CCc3nc(CC)c(CC)cc3C2)C=C[C@@H]1Oc1ccc(OC)cc1` , state whether its composite z-score is at least 0.3.
T

Threshold query (composite z-score >= 0.3) on `COc1cccc([C@H]2Oc3ccc(OC)cc3C(=NO[C@@H]3O[C@H](COC(C)=O)[C@@H](OC(C)=O)[C@H](OC(C)=O)[C@H]3OC(C)=O)[C@@H]2O)c1`
F
